Provide the recorded normalized RNA/DNA level without ligand (log10) for the entries that follow.
B1: library; a variant is named by its letters at N, in order (parent)
chain: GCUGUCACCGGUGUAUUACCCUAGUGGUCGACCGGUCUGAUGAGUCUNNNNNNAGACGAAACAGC

variants of: B1; assay: normalized RNA/DNA level without ligand (relative to sTRSVctl = 100) (log10 (% of sTRSVctl)); ligand: hypoxanthine (xanthine aptamer); higher = less ribozyme self-cleavage, higher mRNA level; details: HEK293T, reporter: mCherry (pCS4076), ligand present: no
Please reply with the number alone, leaving off any unit.

Briefly, normalized RNA/DNA level without ligand (log10) measured for GAGACA : 1.68

Briefly, normalized RNA/DNA level without ligand (log10) measured for GCACGG : 1.44

Briefly, normalized RNA/DNA level without ligand (log10) measured for CAGUCC : 1.88

Briefly, normalized RNA/DNA level without ligand (log10) measured for UUAGCC : 1.88
